# STUDY TARGET: human B1R receptor (hB1R) (Homo sapiens)
# Construct: host or cells: CHO K1 cells
# Sequence (P46663 whole entry): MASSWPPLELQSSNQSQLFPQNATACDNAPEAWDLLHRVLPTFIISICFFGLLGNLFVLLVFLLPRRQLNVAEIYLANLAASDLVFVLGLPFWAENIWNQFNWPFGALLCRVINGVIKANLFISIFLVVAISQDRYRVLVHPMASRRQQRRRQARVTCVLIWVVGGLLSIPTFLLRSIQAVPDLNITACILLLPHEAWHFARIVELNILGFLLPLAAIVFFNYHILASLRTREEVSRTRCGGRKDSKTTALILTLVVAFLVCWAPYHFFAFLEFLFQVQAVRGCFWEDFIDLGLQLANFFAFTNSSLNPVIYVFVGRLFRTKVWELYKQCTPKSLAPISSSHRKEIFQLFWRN
# TEST NAME: FLIPR Ca2+ assay on hB1R-transfected CHO K1 cells, antagonistic action
# Type: cell-based
# ASSAY CONTEXT: CHO-K1, 10 μM test substance; agonist Lys-Des-Arg9-bradykinin 0.5 nM; % of maximum achievable inhibition; read-out: hB1R [10 μM] % inhibition
Assignment: determine reported inhibition at 10 µM for the given compounds.
Answers are plain numbers, in %.

Answered cases to consult:
> print(dat)
                                   compound  value.reported
1  COc1cc(C)c(S(=O)(=O)N2CCCCC2COCC(=O)N(C)CCCC2CCC(Cc3ccccc3)(N3CCCC3)CC2)c(C)c1 (centres unmarked) [Compound 88]             101
2  COc1cc(C)c(S(=O)(=O)N2CCCCC2COCCC(=O)N2CCC(c3cccc(F)c3)(N3CCN(C)CC3)CC2)c(C)c1 (centres unmarked) [Compound 226]             100
3  CN(CCC1CCC(Cc2ccccc2)(N(C)C)CC1)C(=O)CC1CCCCN1S(=O)(=O)c1cccc(C(F)(F)F)c1 (centres unmarked) [Compound 95]              99

Would you be so kind as to report inhibition at 10 µM for each listed record?
1. COc1cc(C)c(S(=O)(=O)N(C)CCOCC(=O)NC2CCC(Cc3ccccc3)(N3CCCC3)CC2)c(C)c1 (centres unmarked) [Compound 170]
2. CN1CCN(C2(Cc3ccccc3)CCN(C(=O)COCC3CCc4ccccc4N3S(=O)(=O)c3ccc(Cl)c(Cl)c3)CC2)CC1 (centres unmarked) [Compound 108]

Result:
[104, 60]

Please state inhibition at 10 µM for every compound in the list that follows.
1. COc1cc(C)c(S(=O)(=O)N(C)CCOCC(=O)N2CCC(c3ccccc3)(N3CCN(c4ccncc4)CC3)CC2)c(C)c1 [Compound 69]
2. COc1cc(C)c(S(=O)(=O)N2CCCC(COCC(=O)NC3CCC(Cc4ccccc4)(N4CCCC4)CC3)C2)c(C)c1 (centres unmarked) [Compound 180]

Result:
[102, 71]

Parameter requested: inhibition at 10 µM. Apply to each item below.
1. Cc1ccccc1CC1(N(C)C)CCC(NC(=O)CC2c3ccccc3CCN2S(=O)(=O)c2ccc(Cl)c(Cl)c2)CC1 (centres unmarked) [Compound 12]
2. COc1cc(C)c(S(=O)(=O)N2CCCCC2COCC(=O)NCC2CCC(c3ccccc3)(N3CCOCC3)CC2)c(C)c1 (centres unmarked) [Compound 157]
3. COc1cc(C)c(S(=O)(=O)N(C)CCOCC(=O)N(C)CCCC2CCC(Cc3ccccc3)(N3CCCC3)CC2)c(C)c1 (centres unmarked) [Compound 85]
4. CN1CCN(C2(Cc3ccccc3)CCC(CN(C)C(=O)COCC3CCCN3S(=O)(=O)c3c(Cl)cc(Cl)cc3Cl)CC2)CC1 (centres unmarked) [Compound 168]
5. CN(CCC1CCC(CCc2ccccc2)(N(C)C)CC1)C(=O)CC(NS(=O)(=O)c1ccc2ccccc2c1)c1ccccc1 (centres unmarked) [Compound 102]
6. CN1CCN(C2(Cc3ccccc3)CCN(C(=O)CC(NS(=O)(=O)c3ccc4ccccc4c3)c3ccccc3)CC2)CC1 (centres unmarked) [Compound 118]

Result:
1. 77
2. 76
3. 99
4. 88
5. 97
6. 101

Problem: What inhibition at 10 µM value was documented for this compound, CN(CCCC1CCC(c2ccccc2)(N2CCCC2)CC1)C(=O)COCC1CCc2ccccc2N1S(=O)(=O)c1ccc(Cl)c(Cl)c1 (centres unmarked) [Compound 133] ?
Result: 92
